Where these numbers come from: patent US11319299B2

- target-under-test: WDR5 (Homo sapiens (Human))
- assay-overview: Surface Plasmon Resonance (SPR) assay, KD and residence time
- Assay type: binding
- experimental-conditions: surface plasmon resonance (SPR); read-out: WDR5 binding affinity (KD)
recorded-metric: Kd (nM)

In [3]: df
Out[3]:
                                   compound  recorded_metric  value_measured
0  CC1CN(c2cc(F)c(-c3ccc(C(N)=O)c(F)c3)cc2NC(=O)c2c[nH]c(=O)cc2C(F)F)CCN1C (stereo in doubt)               Kd            1.18
1  C[C@@H]1CN(c2cc(F)c(C3=CCN(c4ncc(C=O)cn4)CC3)cc2NC(=O)c2c[nH]c(=O)cc2C(F)F)C[C@H](C)N1C               Kd            1.41

[A] C[C@@H]1CN(c2cc(F)c(-c3ccc(F)c(C(N)=O)c3)cc2NC(=O)c2cn(C)c(=O)cc2C(F)F)C[C@H](C)N1C
[B] C[C@@H]1CN(c2cc(F)c(C3=CCN(c4ncc(CN5CCOCC5)cn4)C3)cc2NC(=O)c2c[nH]c(=O)cc2C(F)(F)F)C[C@H](C)N1C
## Task Given A and B , report the one with the higher recorded Kd. Please reply using the label of the selected record.
## Result A
(A: 15.5 nM, B: 0.474 nM)
